# tested.target: human α7 nAChR (Homo sapiens (Human))
# protocol.notes: Automated patch-clamp electrophysiology functional assay (Assay A)
# Type: cell-based
# setup.conditions: electrophysiology EC50 values; IonFlux HT whole-cell population patch, HEK cells expressing human α7/RIC-3, 40 μM acetylcholine
Below is a list of entries, each paired with its recorded pEC50 value.
Units for pEC50: none; it is -log10 of a concentration expressed in mol/L.

Some entries whose results are on file:
>>> result_number("O=C(NCc1ccc(-n2cccc2)cc1)C1C2Oc3ccc(F)cc3C21 (centres unmarked)")
6.07
>>> result_number("O=C(N[C@@H](CO)C1CCCCC1)C1C2COc3ccc(F)cc3C21 (some centres unmarked)")
5.77
>>> result_number("O=C(NCc1cccc(-c2ncco2)c1)C1C2Oc3ccc(F)cc3C21 (centres unmarked)")
5.62
>>> result_number("O=C(NC1(c2ccccc2)CCC1)C1C2COc3ccc(F)cc3C21 (centres unmarked)")
6.00

Next up:
Problem: Tell me its pEC50 on human α7 nAChR (Homo sapiens (Human)): CCOc1ccc([C@H](COC)NC(=O)C2C3Oc4ccc(F)cc4C32)cc1 (some centres unmarked) [Example B4]
Solution: 6.03

====

# tested.target: UniProt:P36544
# protocol.notes: Automated patch-clamp electrophysiology functional assay (Assay A)
# Type: cell-based
# setup.conditions: electrophysiology EC50 values; IonFlux HT whole-cell population patch, HEK cells expressing human α7/RIC-3, 40 μM acetylcholine
Lab note: anything with EC50 below 700 nM is marked 1.0; values at 700 nM or higher are marked 0.0.

>>> cat("COc1cc(C2(NC(=O)C3C4COc5ccccc5C43)CCC2)ccn1 (centres unmarked) [Example A12]")
0.0

Problem: Record O=C(NCc1cc(-c2ccccc2)no1)C1C2Oc3ccc(F)cc3C21 (centres unmarked) [Example C48] : is its EC50 strictly below 700 nM?
Solution: 1.0

Problem: Report whether reported EC50 is lower than 700 nM (strictly) for CCOc1ccc([C@H](COC)NC(=O)C2C3Oc4ccccc4C32)cc1 (some centres unmarked) [Example B3]
Solution: 1.0

Problem: I wonder whether Cc1cc(F)cc(CNC(=O)C2C3Oc4ccc(F)cc4C32)c1 (centres unmarked) [Example C24] has EC50 below 700 nM. Can you tell?
Solution: 0.0

====

Measured EC50 accompanies every entry in the list below.
# tested.target: human α7 nAChR (Homo sapiens (Human), UniProt P36544)
# Sequence (P36544 23-502): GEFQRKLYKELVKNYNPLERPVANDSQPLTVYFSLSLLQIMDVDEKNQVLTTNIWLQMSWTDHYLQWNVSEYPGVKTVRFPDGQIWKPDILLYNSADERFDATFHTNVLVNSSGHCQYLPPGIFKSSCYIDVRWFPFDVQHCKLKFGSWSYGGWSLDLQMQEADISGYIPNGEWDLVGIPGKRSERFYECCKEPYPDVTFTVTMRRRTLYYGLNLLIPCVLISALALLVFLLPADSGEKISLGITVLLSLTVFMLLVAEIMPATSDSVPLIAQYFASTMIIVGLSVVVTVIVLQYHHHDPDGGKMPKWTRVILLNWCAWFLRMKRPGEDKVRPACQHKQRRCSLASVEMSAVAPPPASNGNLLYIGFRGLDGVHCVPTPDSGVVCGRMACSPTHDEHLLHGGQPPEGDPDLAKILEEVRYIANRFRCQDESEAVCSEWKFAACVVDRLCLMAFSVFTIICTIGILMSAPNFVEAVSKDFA
# protocol.notes: Automated patch-clamp electrophysiology functional assay (Assay A)
# Format: cell-based
# setup.conditions: potency class; IonFlux HT whole-cell population patch, HEK cells expressing human α7/RIC-3, 40 μM acetylcholine

Known EC50 results, listed for orientation:
>>> result("O=C(NC1(c2ccc(F)cc2)COC1)C1C2COc3ccc(F)cc3C21 (stereo not drawn)")
"500 to 5000 nM"
>>> result("COc1cc([C@H](CF)NC(=O)C2C3COc4ccc(F)cc4C32)ccn1 (stereo partly drawn)")
"500 to 5000 nM"
>>> result("O=C(N[C@H]1COCc2ccc(F)cc21)C1C2Oc3ccc(F)cc3C21 (stereo partly drawn)")
"500 to 5000 nM"
>>> result("O=C(NCc1cc(-c2ccccc2)no1)C1C2Oc3ccc(F)cc3C21 (stereo not drawn) [Example C32]")
"100 to 500 nM"
>>> result("O=C(NCc1ccc2cnccc2c1)C1C2Oc3ccc(F)cc3C21 (stereo not drawn)")
"500 to 5000 nM"

Here is another compound to look at.
Problem: Please list EC50 recorded for the compound CCOc1ccc([C@H](COC)NC(=O)C2C3Oc4ccc(C#N)cc4C32)cc1 (stereo partly drawn)
Solution: 500 to 5000 nM

====

# tested.target: human α7 nAChR (Homo sapiens (Human))
# protocol.notes: Automated patch-clamp electrophysiology functional assay (Assay A)
# Assay type: cell-based
# setup.conditions: potency class; IonFlux HT whole-cell population patch, HEK cells expressing human α7/RIC-3, 40 μM acetylcholine
pEC50: −log10 of the molar value.
experimental.endpoint: pEC50

Sample records with pEC50:
>>> result("COc1cc(CNC(=O)C2C3Oc4ccc(F)cc4C32)on1 (stereo not drawn)")
"4.30 to 5.30"
>>> result("O=C(NC1(c2ccccc2)CCC1)C1C2COc3ccc(F)cc3C21 (stereo not drawn)")
"5.30 to 6.30"
>>> result("O=C(N[C@@H](C(F)F)C1CCCCC1)C1C2COc3ccccc3C21 (stereo partly drawn)")
"5.30 to 6.30"
>>> result("O=C(N[C@@H](CO)C1CCCCC1)C1C2Sc3ccccc3C21 (stereo partly drawn)")
"5.30 to 6.30"

Problem: Item CCOc1ccc([C@H](COC)NC(=O)C2C3Oc4ccccc4C32)cc1 (stereo partly drawn) [Example B3] : provide pEC50
Solution: 6.30 to 7.00

Problem: Entry O=C(N[C@H]1CCOc2cc(F)c(F)cc21)C1C2COc3ccccc3C21 (stereo partly drawn) needs its pEC50 filled in; supply it.
Solution: 5.30 to 6.30

Problem: Give pEC50 for O=C(NC1(c2ccc(F)cc2)COC1)C1C2COc3ccccc3C21 (stereo not drawn)
Solution: 5.30 to 6.30

Problem: Entry O=C(NC(c1ccccc1)c1ccncc1)[C@@H]1[C@H]2Oc3ccc(F)cc3[C@H]21 (stereo partly drawn) needs its pEC50 filled in; supply it.
Solution: 5.30 to 6.30

Problem: In one line, give reported pEC50 of the entry O=C(NCc1cc(C(F)F)nc(C(F)F)c1)C1C2Oc3ccc(F)cc3C21 (stereo not drawn) .
Solution: 5.30 to 6.30

====

# tested.target: human α7 nAChR (Homo sapiens (Human), UniProt P36544)
# protocol.notes: Automated patch-clamp electrophysiology functional assay (Assay A)
# Type: cell-based
# setup.conditions: electrophysiology EC50 values; IonFlux HT whole-cell population patch, HEK cells expressing human α7/RIC-3, 40 μM acetylcholine
experimental.endpoint: log10 of EC50 (log10 of the value in nM)
Hello, just confirming the data are log10 of EC50 with units of nM.

Solved cases below.
>>> result_number("O=C(NC1(c2ccc(F)cc2)COC1)C1C2COc3ccc(F)cc3C21 (stereo not drawn)")
3.08
>>> result_number("CCOc1ccc([C@H](COC)NC(=O)C2C3Cc4ccccc4C32)cc1 (single isomer, unassigned) [Example 2]")
1.86
>>> result_number("O=C(NCc1cc(-c2ccccc2)no1)C1C2Oc3ccc(F)cc3C21 (stereo not drawn) [Example C32]")
2.28
>>> result_number("O=C(NCc1cc(-c2ccccn2)no1)C1C2Oc3ccc(F)cc3C21 (stereo not drawn)")
2.72
>>> result_number("O=C(NCc1ccc2cnccc2c1)C1C2Oc3ccc(F)cc3C21 (stereo not drawn)")
3.67
>>> result_number("COc1cc([C@@H](NC(=O)C2C3COc4ccc(F)cc4C32)C(F)(F)F)ccn1 (stereo partly drawn)")
3.04

Problem: # return recorded log10 of EC50 for entry CC(NC(=O)C1C2Oc3ccc(F)cc3C21)c1ccc(Br)cc1 (stereo not drawn)
Solution: 3.26

Problem: Retrieve log10 of EC50 measured for CC(NC(=O)C1C2Oc3ccc(F)cc3C21)c1cc2ccccc2o1 (stereo not drawn) and print it.
Solution: 3.36

Problem: Supply measured log10 of EC50 of O=C(NCc1ccc(Cl)c(F)c1)C1C2Oc3ccc(F)cc3C21 (stereo not drawn) in your reply.
Solution: 3.75

====

# tested.target: UniProt P36544
# protocol.notes: Automated patch-clamp electrophysiology functional assay (Assay A)
# Type: cell-based
# setup.conditions: potency class; IonFlux HT whole-cell population patch, HEK cells expressing human α7/RIC-3, 40 μM acetylcholine
# Experimental: The α7 nAChR positive allosteric modulator (PAM) activity of the present compounds may be tested using assays known in the art. […] The compounds were assessed for their ability to modulate the function of the human α7 nAChR stably expressed in a HEK cell line both in the presence, and in the absence of the natural α7 agonist acetylcholine. By performing a series of such measurements at different concentrations, the effective concentration of the α7 nAChR PAMs (EC50) was determined. […]
experimental.endpoint: EC50

>>> result("CCOc1ccc([C@H](COC)NC(=O)C2C3Oc4cc(Br)ccc4C32)cc1 (stereo partly drawn) [Example B15]")
"0.1 to 0.5 µM"
>>> result("CCOc1ccc([C@H](COC)NC(=O)C2C3Oc4ccc(F)cc4C32)cc1 (stereo partly drawn) [Example B4]")
"0.5 to 5 µM"
>>> result("CCOc1ccc([C@H](COC)NC(=O)C2C3Oc4cccc(Br)c4C32)cc1 (stereo partly drawn) [Example B19]")
"≤ 0.1 µM"
>>> result("O=C(NC1(c2ccc(F)cc2)CC(O)C1)C1C2COc3ccccc3C21 (stereo not drawn) [Example A5]")
"0.5 to 5 µM"
>>> result("COc1ccc2c(c1)OCC2NC(=O)C1C2Oc3ccc(F)cc3C21 (stereo not drawn) [Example C8]")
"0.5 to 5 µM"

Problem: Report EC50 under test system UniProt P36544 for CC(C)(NC(=O)C1C2COc3ccc(F)cc3C21)c1cccc(Cl)c1 (stereo not drawn) [Example A18] .
Solution: 0.5 to 5 µM
